Experimental Protocol: Solubility of various drugs: effect of CMC in aqueous HPβCD solutions (Example 1)
Condition Summary: 0.25% CMC + 10% HPβCD vs 10% HPβCD
Measurement Label: S4 /S3

>>> assay_result("CC(=O)[C@H]1CC[C@H]2[C@@H]3CCC4=CC(=O)CC[C@]4(C)[C@H]3CC[C@]12C [Progesterone, progesterone]")
1.52
>>> assay_result("CCOc1ccc2nc(S(N)(=O)=O)sc2c1 [Ethoxyzolamide]")
1.39
>>> assay_result("NC(=O)N1c2ccccc2C=Cc2ccccc21 [Carbamazepine, carbamazepine]")
1.31
>>> assay_result("C[C@@H]1C[C@H]2[C@@H]3CCC4=CC(=O)C=C[C@]4(C)[C@@]3(F)[C@@H](O)C[C@]2(C)[C@@]1(O)C(=O)CO [Dexamethasone, dexamethasone]")
1.04
>>> assay_result("C[C@]12C=CC(=O)C=C1CC[C@@H]1[C@@H]2[C@@H](O)C[C@@]2(C)[C@H]1CC[C@]2(O)C(=O)CO [Prednisolone, prednisolone]")
1.13

----------
Experimental Protocol: physchem
Condition Summary: aqueous 0.25% pvp
Documented log10(solubility at 72 h) across a set of compounds
Measurement Label: log10(solubility at 72 h) (log10 of the value in µg/mL)

>>> assay_result("COc1cc(Cc2cnc(N)nc2N)cc(OC)c1OC")
3.13
>>> assay_result("CC(=O)Nc1nnc(S(N)(=O)=O)s1 [Acetazolamide, acetazolamide]")
3.02
>>> assay_result("CCOc1ccc2nc(S(N)(=O)=O)sc2c1 [Ethoxyzolamide]")
1.78
>>> assay_result("Clc1ccc(COC(Cn2ccnc2)c2ccc(Cl)cc2Cl)c(Cl)c1 (centres unmarked)")
2.30
>>> assay_result("Clc1ccc(COC(Cn2ccnc2)c2ccc(Cl)cc2Cl)cc1 (centres unmarked)")
2.81

----------
Experimental Protocol: Effect of polymers on the solubilization of various compounds in aqueous HPβCD solutions (Example 14)
Condition Summary: 10% hpβcd acidic hcl solution
Measurement Label: solubility (µg/mL)

>>> assay_result("O=C(O)c1ccccc1O")
3710

----------
Experimental Protocol: physchem
Condition Summary: ethanol, cmc, hpbcd, organic solvent or mixture
The following compounds are listed with their measured solubility values.
Measurement Label: solubility (µg/mL)

>>> assay_result("Clc1ccc(COC(Cn2ccnc2)c2ccc(Cl)cc2Cl)c(Cl)c1 (centres unmarked)")
12600
>>> assay_result("CC(=O)Nc1nnc(S(N)(=O)=O)s1 [Acetazolamide, acetazolamide]")
2500

----------
Experimental Protocol: Effect of previously prepared solid HPβCD-polymer complexing agent on solubility (Example 13)
Type: physicochemical
Condition Summary: 10% hpbetacd; 10% (w/v) HPβCD; read-out: S1 solubility
Measurement Label: solubility (µg/mL)

>>> assay_result("NC(=O)N1c2ccccc2C=Cc2ccccc21 [Carbamazepine, carbamazepine]")
7000
>>> assay_result("Clc1ccc(COC(Cn2ccnc2)c2ccc(Cl)cc2Cl)cc1 (centres unmarked)")
4860

----------
Below is a list of entries, each paired with its recorded solubility value.
Experimental Protocol: physchem
Condition Summary: aqueous 0.25% cmc
Measurement Label: solubility (µg/mL)

>>> assay_result("CN(C)c1ccc(N=Nc2ccccc2)cc1")
0.85
>>> assay_result("CC12CCC(CC1=O)C2(C)C (stereo not shown)")
2010
>>> assay_result("CC(C)(O)C(Cl)(Cl)Cl")
8410
>>> assay_result("COc1cc(C=O)ccc1O")
13700

----------
Experimental Protocol: Effect of polymers on the solubilization of various compounds in aqueous HPβCD solutions (Example 14)
Condition Summary: acidic hcl, cmc, hpβcd
Measurement Label: solubility (µg/mL)

>>> assay_result("O=C(O)c1ccccc1O")
4230

----------
Items are presented alongside their recorded solubility.
Experimental Protocol: physchem
Condition Summary: 0.25% cmc in water
Measurement Label: solubility (µg/mL)

>>> assay_result("CC(=O)Nc1nnc(S(N)(=O)=O)s1 [Acetazolamide, acetazolamide]")
840
>>> assay_result("Clc1ccc(COC(Cn2ccnc2)c2ccc(Cl)cc2Cl)c(Cl)c1 (centres unmarked) [Miconazole, miconazole]")
60

----------
Reported solubility at 72 h values for a set of molecules
Experimental Protocol: Effect of PVP on the solubilization of drugs in aqueous HPβCD solutions (Example 7)
Condition Summary: 0.25% pvp, 10% hpβcd
Measurement Label: solubility at 72 h (µg/mL)

>>> assay_result("C[C@@H]1C[C@H]2[C@@H]3CCC4=CC(=O)C=C[C@]4(C)[C@@]3(F)[C@@H](O)C[C@]2(C)[C@@]1(O)C(=O)CO")
8000
>>> assay_result("CC(=O)[C@H]1CC[C@H]2[C@@H]3CCC4=CC(=O)CC[C@]4(C)[C@H]3CC[C@]12C")
5710
>>> assay_result("NC(=O)N1c2ccccc2C=Cc2ccccc21 [Carbamazepine, carbamazepine]")
7500

----------
Experimental Protocol: physchem
Condition Summary: 0.25% cmc, 10% hpβcd
Measurement Label: solubility (µg/mL)

>>> assay_result("CC(=O)Nc1nnc(S(N)(=O)=O)s1 [Acetazolamide, acetazolamide]")
3210

----------
Experimental Protocol: Solubility of various drugs: effect of CMC in aqueous HPβCD solutions (Example 1)
Condition Summary: water
Measurement Label: solubility (µg/mL)

>>> assay_result("C[C@@H]1C[C@H]2[C@@H]3CCC4=CC(=O)C=C[C@]4(C)[C@@]3(F)[C@@H](O)C[C@]2(C)[C@@]1(O)C(=O)CO [Dexamethasone, dexamethasone]")
260
>>> assay_result("NC(=O)N1c2ccccc2C=Cc2ccccc21 [Carbamazepine, carbamazepine]")
110

----------
Experimental Protocol: Effect of previously prepared solid HPβCD-polymer complexing agent on solubility (Example 13)
Format: physicochemical
Condition Summary: 9.88% hpbetacd + 0.12% hpmc; 9.88% (w/v) HPβCD and 0.12% (w/v) HPMC; read-out: S4 solubility
Measurement Label: solubility

>>> assay_result("NC(=O)N1c2ccccc2C=Cc2ccccc21 [Carbamazepine, carbamazepine]")
"9530 µg/mL"
>>> assay_result("Clc1ccc(COC(Cn2ccnc2)c2ccc(Cl)cc2Cl)cc1 (centres unmarked)")
"6320 µg/mL"

----------
Experimental Protocol: physchem
Condition Summary: aqueous 0.25% cmc
Reported solubility values for a set of compounds
Measurement Label: solubility

>>> assay_result("CC(=O)Nc1nnc(S(N)(=O)=O)s1 [Acetazolamide, acetazolamide]")
"840 µg/mL"
>>> assay_result("C[C@]12C=CC(=O)C=C1CC[C@@H]1[C@@H]2[C@@H](O)C[C@@]2(C)[C@H]1CC[C@]2(O)C(=O)CO [Prednisolone, prednisolone]")
"530 µg/mL"
>>> assay_result("Clc1ccc(COC(Cn2ccnc2)c2ccc(Cl)cc2Cl)c(Cl)c1 (stereo not shown) [Miconazole, miconazole]")
"60 µg/mL"
>>> assay_result("Clc1ccc(COC(Cn2ccnc2)c2ccc(Cl)cc2Cl)cc1 (stereo not shown) [Econazole, econazole]")
"600 µg/mL"
>>> assay_result("CC1(C)O[C@@H]2C[C@H]3[C@@H]4CCC5=CC(=O)C=C[C@]5(C)[C@@]4(F)[C@@H](O)C[C@]3(C)[C@]2(C(=O)CO)O1 [Triamcinolone acetonide, triamcinolone acetonide]")
"70 µg/mL"
>>> assay_result("Cc1nnc2n1-c1ccc(Cl)cc1C(c1ccccc1)=NC2 [Alprazolam]")
"180 µg/mL"
>>> assay_result("CCOc1ccc2nc(S(N)(=O)=O)sc2c1 [Ethoxyzolamide]")
"70 µg/mL"

----------
Experimental Protocol: physchem
Condition Summary: aqueous 0.25% pvp
# solubility listing for each entry below
Measurement Label: solubility (µg/mL)

>>> assay_result("CC(C)(O)C(Cl)(Cl)Cl [Chlorbutol]")
8410
>>> assay_result("CC12CCC(CC1=O)C2(C)C (stereo not shown) [Camphor]")
2200
>>> assay_result("COc1cc(C=O)ccc1O [Vanillin]")
11500
>>> assay_result("CN(C)c1ccc(N=Nc2ccccc2)cc1 [Methylyellow]")
0.85

----------
Experimental Protocol: physchem
Condition Summary: water
Measurement Label: solubility (µg/mL)

>>> assay_result("CC1(C)O[C@@H]2C[C@H]3[C@@H]4CCC5=CC(=O)C=C[C@]5(C)[C@@]4(F)[C@@H](O)C[C@]3(C)[C@]2(C(=O)CO)O1 [Triamcinolone acetonide, triamcinolone acetonide]")
30
>>> assay_result("Clc1ccc(COC(Cn2ccnc2)c2ccc(Cl)cc2Cl)cc1 (stereo not shown)")
570
>>> assay_result("C[C@]12C=CC(=O)C=C1CC[C@@H]1[C@@H]2[C@@H](O)C[C@@]2(C)[C@H]1CC[C@]2(O)C(=O)CO")
380
>>> assay_result("Cc1nnc2n1-c1ccc(Cl)cc1C(c1ccccc1)=NC2")
70
>>> assay_result("CCOc1ccc2nc(S(N)(=O)=O)sc2c1 [Ethoxyzolamide]")
40
>>> assay_result("Clc1ccc(COC(Cn2ccnc2)c2ccc(Cl)cc2Cl)c(Cl)c1 (stereo not shown)")
40
>>> assay_result("CC(=O)Nc1nnc(S(N)(=O)=O)s1 [Acetazolamide, acetazolamide]")
700
